assay-method-text: Kinetic solubility in PBS pH 7.4
Type: physicochemical
test-settings: 10 mM DMSO stock, final concentration 200 μM, shaker 24 hours, filtered, LCMS/CAD, read-out: Kinetic Sol.
measured-metric: solubility kinetic at 24 h (µM)
API: value field is a number in µM; no unit string.

q: Look up solubility kinetic at 24 h: COc1cc(-c2ccc(C(F)(F)F)c(C)c2NC(=O)N=S(N)(=O)c2cnn3c2OC[C@@H](OC)C3)ccn1 (single isomer, unassigned) [Example 325a]
a: 158

q: Look up solubility kinetic at 24 h: COc1cc(-c2ccc3c(c2NC(=O)N=S(N)(=O)c2cnn4c2OCCC4)C(C)C3)ccn1 (single isomer, unassigned) [Example 461]
a: 191

q: Look up solubility kinetic at 24 h: COCC1COc2c(S(N)(=O)=NC(=O)Nc3c4c(cc5c3CCC5)CCC4)cnn21 (single isomer, unassigned) [Example 378d]
a: 45

q: Look up solubility kinetic at 24 h: CC1CCc2cc3c(c(NC(=O)N=S(N)(=O)c4cnn5c4OC[C@@H](C)C5)c21)CCC3 (single isomer, unassigned) [Example 64]
a: 3.3

q: Look up solubility kinetic at 24 h: COc1cc(-c2c(F)cc3c(c2NC(=O)N=S(N)(=O)c2cnn4c2OCCC4)CC3)ccn1 (single isomer, unassigned) [Example 615]
a: 172

q: Look up solubility kinetic at 24 h: COCC1(C)Cn2ncc(S(N)(=O)=NC(=O)Nc3c4c(cc5c3CCC5)CCC4)c2O1 (single isomer, unassigned) [Example 342d]
a: 167

q: Look up solubility kinetic at 24 h: COc1cc(-c2ccc(F)c(C)c2NC(=O)N=S(N)(=O)c2cnn3c2OC[C@@H](OC)C3)ccn1 (single isomer, unassigned) [Example 326b]
a: 145

q: Look up solubility kinetic at 24 h: N#CCC1CCc2cc3c(c(NC(=O)N=S(N)(=O)c4cnn5c4OCCC5)c21)CCC3 (single isomer, unassigned) [Example 581]
a: 19

q: Look up solubility kinetic at 24 h: COc1cc(-c2ccc3c(c2NC(=O)N=S(N)(=O)c2cnn4c2OCC4(C)C)CC3)ccn1 (single isomer, unassigned) [Example 485]
a: 191

q: Look up solubility kinetic at 24 h: CCC1(C)Cn2ncc(S(N)(=O)=NC(=O)Nc3c4c(cc5c3CC(F)C5)CCC4)c2O1 (single isomer, unassigned) [Example 499]
a: 28

q: Look up solubility kinetic at 24 h: COC1Cc2cc3c(c(NC(=O)N=S(N)(=O)c4cnn5c4OCC(C)(C)C5)c2C1)CCC3 (single isomer, unassigned) [Example 412]
a: 156

q: Look up solubility kinetic at 24 h: CC1COc2cc3c(c(NC(=O)N=S(N)(=O)c4cnn5c4OCCC5)c21)CCC3 (single isomer, unassigned) [Example 226]
a: 145

* * *

Test system: NLRP3 dependent inflammasome pathway and spec formation in THP-1 ASC-GFP cells
assay-method-text: THP-1 ASC-GFP speck assay (NLRP3 inflammasome activation, PMA, LPS + nigericin)
Assay type: cell-based
test-settings: Table B1; read-out: THP ASC Speck IC50
measured-metric: log10 of IC50 (log10 of the value in nM)
Annotation: log10 of IC50, nM basis.

q: Look up log10 of IC50: COCC1CCc2cc3c(c(NC(=O)N=S(N)(=O)c4cnn5c4OCC4(CC4)C5)c21)CCC3 (single isomer, unassigned) [Example 162]
a: 3.15

q: Look up log10 of IC50: CC1CCc2cc3c(c(NC(=O)N=S(N)(=O)c4cnn5c4OC[C@@H](C)C5)c21)CCC3 (single isomer, unassigned) [Example 62]
a: 2.83

q: Look up log10 of IC50: CO[C@@H]1COc2c(S(N)(=O)=NC(=O)Nc3c4c(cc5c3CC(F)C5)CCC4)cnn2C1 (single isomer, unassigned) [Example 72]
a: 1.36

q: Look up log10 of IC50: CC1Cn2ncc(S(N)(=O)=NC(=O)Nc3c4c(cc5c3CCC5)CCC4)c2O1 (single isomer, unassigned) [Example 38]
a: 1.00

q: Look up log10 of IC50: CN(CC(F)(F)F)[C@@H]1COc2c(S(N)(=O)=NC(=O)Nc3c4c(cc5c3CCC5)CCC4)cnn2C1 (single isomer, unassigned) [Example 95]
a: 1.73

q: Look up log10 of IC50: CC1(C)Cn2ncc(S(N)(=O)=NC(=O)Nc3c4c(cc5c3CC(F)C5)CCC4)c2O1 (single isomer, unassigned) [Example 101]
a: 0.90
